Study system: T1, TNFR1 (Homo sapiens, UniProt P19438)
T1 chain: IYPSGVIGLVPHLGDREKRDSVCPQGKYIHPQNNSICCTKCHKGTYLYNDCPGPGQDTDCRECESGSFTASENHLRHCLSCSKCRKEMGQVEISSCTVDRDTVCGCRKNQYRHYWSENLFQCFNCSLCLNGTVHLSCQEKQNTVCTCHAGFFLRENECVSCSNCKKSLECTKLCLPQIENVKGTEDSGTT
Experiment notes: yeast display SC50
Observed property: apparent Kd (screen) (nM)

[P] S51H (designed binder) MTLQELLREEALRRAEAEAFRYALELLAEKFPEQKEYLLDLAEEIESQIRHLSGVDVEDVRKFLDKEWAWVKELLAEHPAELAEVEAARAARLAELRAEVEAKVAA
[Q] A11G (designed binder) MTLQELLREEGLRRAEAEAFRYALELLAEKFPEQKEYLLDLAEEIESQIRSLSGVDVEDVRKFLDKEWAWVKELLAEHPAELAEVEAARAARLAELRAEVEAKVAA
Request: Looking at recorded values for apparent Kd (screen), does P or Q come in lower? Identify your pick by its label.
Result: P
